- Tested on: H460
- ASSAY_NOTES: Cytotoxicity in NSCLC tumor models
- Type: cell-based, human
- EXPERIMENTAL_PARAMETERS: H460, p53 wt; N = 3

- MOLECULE: "O=C1[O][Pt]2([NH][C@@H]3CCCC[C@H]3[NH]2)[O]C1=O"
  IC50: "0.36 µM"
- MOLECULE: "N.N.[Cl][Pt][Cl] [Cisplatin, cisplatin, reference compound]"
  IC50: "0.45 µM"

###

- Test system: SkLU1
- ASSAY_NOTES: Cytotoxicity in NSCLC tumor models
- Format: cell-based, human
- EXPERIMENTAL_PARAMETERS: SkLU1, p53 mu; N = 3

- COMPOUND: "N.N.[Cl][Pt][Cl] [Cisplatin, cisplatin, reference compound]"
  IC50 (µM): 0.89
- COMPOUND: "O=C1[O][Pt]2([NH][C@@H]3CCCC[C@H]3[NH]2)[O]C1=O"
  IC50 (µM): 2.02
